Assay Text: Solubility in water containing 1% DMSO (UV spectroscopy)
Type: physicochemical
Experimental Parameters: organic solvent or mixture; water containing 1% DMSO
Listed next: entries and their corresponding solubility.
Form entry: value (µg/mL) — number only.

Use the examples below as a reference point.
{"columns": ["Smiles Code", "solubility [µg/mL]"],
 "data": [
  ["COc1cc(OC)c(OC)cc1/C=C1\\Oc2ccccc2C1=O", 42.4],
  ["COc1ccc(/C=C2\\Oc3ccccc3C2=O)cc1", 16.2],
  ["O=C1/C(=C/c2cc(O)c(O)c(O)c2)Oc2ccccc21", 90.8],
  ["COc1ccc(/C=C2\\Oc3ccccc3C2=O)cc1OC", 36.3],
  ["O=C1/C(=C/c2cc(O)c(O)cc2O)Oc2ccccc21", 120]
]}

O=C1/C(=C/c2ccc(O)cc2)Oc2ccccc21 yielded solubility of 18.9

COc1cc(/C=C2\Oc3ccccc3C2=O)cc(OC)c1OC yielded solubility of 44.7

COc1cc(/C=C2\Oc3ccccc3C2=O)cc(OC)c1 yielded solubility of 19

---

System: S. mutans Gtfs
Assay Text: Gtf inhibition determined by glucan quantification
Assay type: biochemical, Streptococcus mutans
Experimental Parameters: role: inhibitor; 1% sucrose, 1% DMSO; no BME or Triton-X-100; read-out: Gtf inhibition (glucan production) IC50
Endpoint Label: pIC50
Units for pIC50: none; it is -log10 of a concentration expressed in mol/L.

O=C1/C(=C/c2cc(O)c(O)cc2O)Oc2ccccc21 [HA5] yielded pIC50 of 4.98

---

Listed next: entries and their corresponding solubility.
Assay Text: Solubility in water containing 1% DMSO (UV spectroscopy)
Assay type: physicochemical
Experimental Parameters: organic solvent or mixture; water containing 1% DMSO, UV spectroscopy
Form entry: value (mg/mL) — number only.

{"columns": ["Smiles Code", "solubility, mg/mL"],
 "data": [
  ["O=C1/C(=C/c2ccc(O)c(O)c2)Oc2ccccc21", 0.0816],
  ["O=C1/C(=C/c2cc(O)cc(O)c2)Oc2ccccc21", 0.0765]
]}

O=C1C(=Cc2ccccc2)Oc2ccccc21 yielded solubility of 0.00851

---

Listed next: entries and their corresponding IC50.
Test system: S. mutans UA159
Assay Text: Biofilm inhibition, S. mutans UA159 (crystal violet, OD562)
Format: cell-based, Streptococcus mutans
Experimental Parameters: Streptococcus mutans, UA159, read-out: Biofilm IC50
Form entry: value (µM) — number only.

{"columns": ["Compound", "IC50, µM"],
 "data": [
  ["O=C1C(=Cc2ccccc2)Oc2ccccc21 [MA1]", 33.6],
  ["O=C1/C(=C/c2cc(O)c(O)c(O)c2)Oc2ccccc21 [HA6]", 18.9],
  ["COc1ccc(/C=C2\\Oc3ccccc3C2=O)cc1OC [MA3]", 49.4],
  ["O=C1/C(=C/c2cc(O)c(O)cc2O)Oc2ccccc21 [HA5]", 6.42],
  ["COc1cc(OC)c(OC)cc1/C=C1\\Oc2ccccc2C1=O [MA5]", 52.8],
  ["O=C1/C(=C/c2ccc(O)c(O)c2)Oc2ccccc21 [HA3]", 30.7],
  ["COc1ccc(/C=C2\\Oc3ccccc3C2=O)cc1 [MA2]", 108],
  ["O=C1/C(=C/c2ccc(O)cc2)Oc2ccccc21 [HA2]", 18.8]
]}

O=C1/C(=C/c2cc(O)cc(O)c2)Oc2ccccc21 [HA4] yielded IC50 of 94.2

COc1cc(C=CC(=O)c2ccccc2O)cc(OC)c1OC [Compound 3f] yielded IC50 of 181
